biological target: Candida albicans isocitrate lyase (ICL) (Candida albicans); experiment: Inhibition of the isocitrate lyase (ICL) activity assay; assay type: biochemical; conditions: purified C. albicans ICL 2.5 μg/mL, 37 °C, 30 min, pH 7.0; read-out: IC50, inhibition of Candida albicans isocitrate lyase (ICL)
Sequence (Q9P8Q7 whole entry): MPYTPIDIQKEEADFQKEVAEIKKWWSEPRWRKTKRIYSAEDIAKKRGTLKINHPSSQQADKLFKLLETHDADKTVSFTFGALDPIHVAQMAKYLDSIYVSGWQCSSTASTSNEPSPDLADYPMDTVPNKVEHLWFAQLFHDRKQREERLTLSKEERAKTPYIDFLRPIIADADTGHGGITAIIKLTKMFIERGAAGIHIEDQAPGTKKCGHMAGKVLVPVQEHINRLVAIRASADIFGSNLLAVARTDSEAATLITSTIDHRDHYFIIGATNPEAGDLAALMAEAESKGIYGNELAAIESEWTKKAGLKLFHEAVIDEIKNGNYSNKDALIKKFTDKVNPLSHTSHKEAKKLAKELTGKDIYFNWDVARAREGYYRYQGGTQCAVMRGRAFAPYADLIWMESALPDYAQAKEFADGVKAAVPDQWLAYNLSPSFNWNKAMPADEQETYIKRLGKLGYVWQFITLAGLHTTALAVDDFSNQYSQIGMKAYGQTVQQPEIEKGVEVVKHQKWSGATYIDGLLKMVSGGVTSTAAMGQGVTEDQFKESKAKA
Below, each entry is listed with its recorded IC50.
parameter: IC50 (µM)

compound="C=C1Oc2cc(OC)cc(C(=O)OC[C@H]3O[C@H](OC[C@H]4O[C@H](O)[C@H](O)[C@@H](O)[C@@H]4O)[C@H](O)[C@@H](O)[C@@H]3O)c2NC1=O [Compound 1, arcticoside]" tgt="Candida albicans isocitrate lyase (ICL) (Candida albicans)" parameter=IC50 test_result=30.4
compound="O=C(O)CC[N+](=O)[O-] [3-nitropropionic acid, reference compound]" tgt="Candida albicans isocitrate lyase (ICL) (Candida albicans)" parameter=IC50 test_result=35.2

Where do these numbers come from? They come from paper PMC4052304.
